Tested on: LOC_OS05G16824-cb004;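 note: purified Escherichia coli-expressed rice kinase domain construct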
Test: thermal shift delta Tm vs DMSO control; higher = stronger stabilization (binding)
Conditions: 12.5 µM; protein concentration 2 µM
quantityKind: thermal shift delta Tm (°C)
Numeric only. Scale: °C

[Q] Fill in the blank: the reported thermal shift delta Tm of `CCn1nc(C2CCN(C(=O)CCO)CC2)nc1-c1cnc(N)c(-c2nnc(C(C)(C)C)o2)n1` is ____.
[A] 1.95

[Q] Fill in: thermal shift delta Tm of `CN1CCN(S(=O)(=O)c2ccc(-c3cnc(N)c(C(=O)Nc4cccnc4)n3)cc2)CC1` is ___
[A] 1.41

[Q] Look up thermal shift delta Tm for this compound: COc1cc(Nc2ncc(F)c(Nc3ccc4c(n3)NC(=O)C(C)(C)O4)n2)cc(OC)c1OC [R406 (free base)]
[A] 12.6

[Q] Which thermal shift delta Tm reading was recorded for the compound CN1CCN(c2ccc3nc(-c4c(N)c5c(F)cccc5[nH]c4=O)[nH]c3c2)CC1 [Dovitinib (TKI-258) Dilactic Acid] ?
[A] 15.7

[Q] Reported thermal shift delta Tm for `CNc1nc(Nc2cn(C(C)(C)C#N)nc2C)ncc1C(F)(F)F` : what is it?
[A] 1.76

[Q] Looking for the measured thermal shift delta Tm of `C[C@H](NC(=O)c1c(N)nn2cccnc12)c1cc2cccc(C#Cc3cnn(C)c3)c2c(=O)n1-c1ccccc1` , can you help?
[A] 2.93

[Q] Can you look up the measured thermal shift delta Tm of `COc1cc(N2CCC(N3CCN(C)CC3)CC2)ccc1Nc1ncnc(Nc2ccccc2S(=O)(=O)C(C)C)n1` for me?
[A] -1.84

[Q] Form field: reported thermal shift delta Tm of `O=C(c1ccc(Nc2nccc(-c3cc4ccccc4s3)n2)cc1)N1CCC(N2CCCC2)CC1`
[A] 7.99

[Q] Given Cc1ccc(Nc2nccc(N(C)c3ccc4c(C)n(C)nc4c3)n2)cc1S(N)(=O)=O [Pazopanib] , state its recorded thermal shift delta Tm.
[A] 3.43

[Q] Param item = `C[C@@H](N)[C@H]1CC[C@H](C(=O)Nc2ccncc2)CC1` ; retrieve measured thermal shift delta Tm.
[A] 1.53

[Q] Fill blank: measured thermal shift delta Tm of the compound `Cc1c(C(=O)N2CCOc3ccc(-c4ccc(N)nc4)cc3C2)ccc(S(C)(=O)=O)c1F` is ____.
[A] -4.24

[Q] Requested field: thermal shift delta Tm. Item: `COc1cc2c(N3CCN(C(=O)Nc4ccc(OC(C)C)cc4)CC3)ncnc2cc1OCCCN1CCCCC1`
[A] 0.72

[Q] Name the reported thermal shift delta Tm value associated with the compound CC[C@H](CO)Nc1nc(NCc2ccccc2)c2ncn(C(C)C)c2n1 [Roscovitine (Seliciclib,CYC202)]
[A] -1.49

[Q] Given the entry `Cc1cc(Nc2nc(N[C@@H](C)c3ncc(F)cn3)ncc2Cl)[nH]n1` , report its measured thermal shift delta Tm.
[A] 8.64

[Q] Quick one: thermal shift delta Tm of `COc1ccc(F)c(F)c1C(=O)c1cnc(NC2CCN(S(C)(=O)=O)CC2)nc1N` ?
[A] -1.46

[Q] Fill in: thermal shift delta Tm of `O=C(c1ccc(/C=C/c2n[nH]c3ccccc23)cc1)N1CCNCC1` is ___
[A] 10.5

[Q] What thermal shift delta Tm value was documented for this compound, `CCS(=O)(=O)c1cccc(-c2cc(C(=O)NC3CCN(C)CC3)c(C)c3[nH]c4ncc(C)cc4c23)c1` ?
[A] 10.6

[Q] Which thermal shift delta Tm value is on record for `Cc1cnc(Nc2ccc(OCCN3CCCC3)cc2)nc1Nc1cccc(S(=O)(=O)NC(C)(C)C)c1` ?
[A] 6.93
